Please respond with reported TD50 for every item in the list.
system: rodent lifetime carcinogenesis bioassay, tumor incidence TD50; assay: carcinogenic potency in animals, long-term in vivo studies, CPDB compilation (AID 1745844); conditions: rat; strain BR 46; males; i.v.; site: any site (literature study); lesion: several types; types named in the paper; dosed 52 weeks; study length 104 weeks
Calls of active or inactive are those of the source. How the calls were made is not given here. Numbered stars: 1 amine (or outer) side, 2 acyl side, 3 side chain; on linkers, the order of the positions; unused ones are H or OH. Bridge positions count the residues as written; N and C are the ends. Square brackets hold non-standard residues; d marks the D form. Peptide text beside a SMILES is read from it. I, II: the chains in the order shown. Actinocin(1to9) = Cc1c2oc3c(C)ccc(C(=O)[*:2])c3nc-2c(C(=O)[*:1])c(N)c1=O; NMeV = CN[C@H](C(=O)O)C(C)C; Sar = CNCC(=O)O

Documented TD50 of O=C1C=C(N2CC2)C(=O)C(N2CC2)=C1N1CC1 : 0.00504 mg/kg/day

TD50 reported for this molecule CN[C@H]1CCc2cc(OC)c(OC)c(OC)c2-c2ccc(OC)c(=O)cc21 : 0.0787 mg/kg/day (inactive)

Measured TD50, CN(Cc1cnc2nc(N)nc(N)c2n1)c1ccc(C(=O)N[C@@H](CCC(=O)O)C(=O)O)cc1 : 0.33 mg/kg/day (inactive)

CC[C@H](C)[C@@H]1NC(=O)[C@@H](NC(=O)c2c3nc4c(C(=O)N[C@@H]5C(=O)N[C@@H](C(C)C)C(=O)N6CCC[C@H]6C(=O)N(C)CC(=O)N(C)[C@@H](C(C)C)C(=O)O[C@@H]5C)ccc(C)c4oc-3c(C)c(=O)c2N)[C@@H](C)OC(=O)[C@H](C(C)C)N(C)C(=O)CN(C)C(=O)[C@@H]2CCCN2C1=O (I: TIP[Sar][NMeV] / II: TVP[Sar][NMeV]; ester I:1-I:C, II:1-II:C; linker I:N-II:N via Actinocin(1to9)) has a reported TD50 of 1.68 mg/kg/day

Entry under test: CNNCc1ccc(C(=O)NC(C)C)cc1 . Its TD50 was 4.01 mg/kg/day

Lab book: TD50 of S=P(N1CC1)(N1CC1)N1CC1 noted as 0.186 mg/kg/day

Item: S=c1nc[nH]c2nc[nH]c12 | TD50: 58.1 mg/kg/day (inactive)

---

system: rodent lifetime carcinogenesis bioassay, tumor incidence TD50; assay: carcinogenic potency in animals, long-term in vivo studies, CPDB compilation (AID 1745844); conditions: rat; strain Fischer 344; females; in drinking water; site: liver; lesion: hepatocellular carcinoma; dosed 50 weeks; study length 85 weeks
measure-name: TD50

TD50 for rodent lifetime carcinogenesis bioassay, tumor incidence TD50 with input C=CCN(CC(C)=O)N=O equals 0.335 mg/kg/day

---

test system: rodent lifetime carcinogenesis bioassay, tumor incidence TD50; test: carcinogenic potency in animals, long-term in vivo studies, CPDB compilation (AID 1745844); conditions: rat; strain F344/DuCrj; males; inhaled; site: spleen; lesion: mononuclear-cell leukemia; dosed 104 weeks; study length 104 weeks
measure-name: TD50

Measured TD50 of ClC(Cl)=C(Cl)Cl : 257 mg/kg/day

---

test system: rodent lifetime carcinogenesis bioassay, tumor incidence TD50; assay: carcinogenic potency in animals, long-term in vivo studies, CPDB compilation (AID 1745844); settings: rat; strain Charles River CD (Sprague-Dawley); males; in feed; site: liver; lesion: several types; types named in the paper; dosed 77 weeks; study length 98 weeks
Calls of active or inactive are those of the source. How the calls were made is not given here.
measure-name: TD50

// field: TD50; key: Cc1ccc(N)c(C)c1 ; value = 260 mg/kg/day (inactive)

# TD50 (compound: Cc1cc(C)c(N)cc1C ) is 47.9 mg/kg/day

For reference, reported TD50 for Nc1ccc(Cc2ccc(N)c(Cl)c2)cc1Cl stands at 70.1 mg/kg/day

TD50 in this record for Nc1ccc(Oc2ccc(Cl)cc2)cc1 : 37.9 mg/kg/day

For Cc1cc(Cl)ccc1N the compound record lists TD50 as 123 mg/kg/day (inactive)

---

system: rodent lifetime carcinogenesis bioassay, tumor incidence TD50; experiment: carcinogenic potency in animals, long-term in vivo studies, CPDB compilation (AID 1745844); settings: mouse; strain Swiss albino; males; in drinking water; site: kidney; lesion: adenoma; dosed 62 weeks; study length 62 weeks
measure-name: TD50 (mg/kg/day)
Please respond with the number in mg/kg/day and leave the unit unwritten.

# TD50 measured on rodent lifetime carcinogenesis bioassay, tumor incidence TD50 for item CN(C)N = 19.5

---

tested on: rodent lifetime carcinogenesis bioassay, tumor incidence TD50; test: carcinogenic potency in animals, long-term in vivo studies, CPDB compilation (AID 1745844); conditions: rat; strain Fischer 344; females; by gavage; site: clitoral gland; lesion: adenoma + adenoma, bilateral + carcinoma + carcinoma, bilateral; dosed 91 weeks; study length 105 weeks
measure-name: TD50

Recorded result, ClCC(Cl)CCl , TD50: 3.58 mg/kg/day

---

tested on: rodent lifetime carcinogenesis bioassay, tumor incidence TD50; assay: carcinogenic potency in animals, long-term in vivo studies, CPDB compilation (AID 1745844); settings: mouse; strain Charles River CD1; females; in drinking water; site: liver; lesion: several types; types named in the paper; dosed 104 weeks; study length 104 weeks
measure-name: TD50 (mg/kg/day)
# unit: mg/kg/day | format: bare number

Reported TD50 of CN(C)N : 74.7

---

test system: rodent lifetime carcinogenesis bioassay, tumor incidence TD50; assay: carcinogenic potency in animals, long-term in vivo studies, CPDB compilation (AID 1745844); details: rat; strain F344/DuCrj; males; in feed; site: subcutaneous tissue; lesion: fibroma; dosed 100 weeks; study length 100 weeks
measure-name: TD50

// Cc1cc2c(nc1N)[nH]c1ccccc12 : TD50 value = 6.7 mg/kg/day

---

tested on: rodent lifetime carcinogenesis bioassay, tumor incidence TD50; assay: carcinogenic potency in animals, long-term in vivo studies, CPDB compilation (AID 1745844); conditions: mouse; strain B6C3F1; males; inhaled; site: any site (literature study); lesion: several types; types named in the paper; dosed 104 weeks; study length 105 weeks
measure-name: TD50
# include the unit after the value

Per the records, this compound ( CCBr ) has TD50 equal to 1630 mg/kg/day

---

test system: rodent lifetime carcinogenesis bioassay, tumor incidence TD50; assay: carcinogenic potency in animals, long-term in vivo studies, CPDB compilation (AID 1745844); details: rat; strain Fischer 344; females; in feed; site: liver; lesion: neoplastic nodule; dosed 104 weeks; study length 105 weeks
measure-name: TD50

Value of TD50 reported for the compound ClC1(Cl)C2(Cl)C3(Cl)C4(Cl)C(Cl)(Cl)C5(Cl)C3(Cl)C1(Cl)C5(Cl)C24Cl (stereo unspecified) is 3.22 mg/kg/day

---

test system: rodent lifetime carcinogenesis bioassay, tumor incidence TD50; experiment: carcinogenic potency in animals, long-term in vivo studies, CPDB compilation (AID 1745844); settings: rat; strain Fischer 344; males; by gavage; site: adrenal medulla; lesion: pheochromocytoma benign, bilateral + pheochromocytoma, benign; dosed 104 weeks; study length 104 weeks
measure-name: TD50 (mg/kg/day)
Report the value in mg/kg/day with no unit label.

Note to self: TD50 recorded for O=P(OCCCl)(OCCCl)OCCCl was 49.5

---

tested on: rodent lifetime carcinogenesis bioassay, tumor incidence TD50; assay: carcinogenic potency in animals, long-term in vivo studies, CPDB compilation (AID 1745844); conditions: mouse; strain B6C3F1; males; in feed; site: liver; lesion: hepatocellular carcinoma; dosed 79 weeks; study length 93 weeks
measure-name: TD50

Reported TD50 ( Nc1ccc2c(c1)C(=O)c1ccccc1C2=O ) = 755 mg/kg/day

---

system: rodent lifetime carcinogenesis bioassay, tumor incidence TD50; assay: carcinogenic potency in animals, long-term in vivo studies, CPDB compilation (AID 1745844); details: rat; strain F344/DuCrj; males; in feed; site: forestomach; lesion: carcinoma, in situ; dosed 51 weeks; study length 52 weeks
measure-name: TD50 (mg/kg/day)
Only the number, expressed in mg/kg/day, is required.

Entry Oc1ccccc1O — recorded TD50 = 833

---

system: rodent lifetime carcinogenesis bioassay, tumor incidence TD50; test: carcinogenic potency in animals, long-term in vivo studies, CPDB compilation (AID 1745844); conditions: rat; strain F344/DuCrj; males; in feed; site: liver; lesion: hepatocellular carcinoma; dosed 104 weeks; study length 106 weeks
Activity calls are given as the source filed them. The rule behind the calls is not given here.
measure-name: TD50

Measured TD50 of CO[C@@H]1[C@@H](O[C@@H]2O[C@H](C)[C@@H](O[C@H]3C[C@@](C)(O)[C@@H](OC(=O)CC(C)C)[C@H](C)O3)[C@H](N(C)C)[C@H]2O)[C@@H](CC=O)C[C@@H](C)[C@@H](O)/C=C/C=C/C[C@@H](C)OC(=O)C[C@H]1OC(C)=O : 51300 mg/kg/day (inactive)
